# test.method.notes: NCI Yeast Anticancer Drug Screen. Data for the mlh1 rad18 strain (AID 175)
# condition: S. cerevisiae mlh1 rad18 strain growth inhibition; at 50.0 µM; hits give high values
About 79,000 compounds went through this panel and 15% of them were active in at least one assay; those are over-represented in the sample as a whole.
measurement.type: growth inhibition (%)
Answers are plain numbers, in %.

{"compound": "CCN(CC)CCn1ccc2ccccc21", "measurement.type": "growth inhibition", "endpoint.result": -5.95}
{"compound": "CNC(=O)Oc1cc(C)cc(C(C)C)c1", "measurement.type": "growth inhibition", "endpoint.result": 6}
{"compound": "Cc1cccc(C#N)c1", "measurement.type": "growth inhibition", "endpoint.result": -0.05}
{"compound": "COc1ccc2c(c1OC)C(=O)O[C@@H]2[C@H]1c2cc3c(cc2CCN1C)OCO3", "measurement.type": "growth inhibition", "endpoint.result": -43.5}
{"compound": "CCOP(=O)(OCC)/C(C#N)=C/c1cnc(C)[nH]1", "measurement.type": "growth inhibition", "endpoint.result": -5.55}

Record growth inhibition per entry; entries follow.
1. CCc1c2c(c(C)n1C)C(c1ccccc1)=NCC(=O)N2
2. COc1ccc(/C=C/C=C2C(=O)NC(=S)NC2=O)cc1

3
25.2

* * *

# test.method.notes: NCI Yeast Anticancer Drug Screen. Data for the rad50 strain (AID 155);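 also: 0% = growth of vehicle-only cultures of the same strain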
# condition: S. cerevisiae rad50 strain growth inhibition; at 50.0 µM; hits give high values
The panel holds about 79,000 compounds, 15% with a hit somewhere; the sample as a whole holds those more often.
measurement.type: growth inhibition (%)
Numbers only, in %.

Record growth inhibition per entry; entries follow.
1. CCOc1ccc2ccccc2c1OP(=O)(OCC)OCC
2. CCCCCCCCCCCC(=O)[O][Pb]([CH2]CCC)([CH2]CCC)[O]C(=O)CCCCCCCCCCC
3. O=C(O)CCCC(=O)CCCC(=O)O.[Pb]
4. CC1(C)N(C(=S)Nc2ccccc2)C1(C)C
5. CC1=C(C)C(=O)OC(C(C)(O)C2(O)CCC3(O)C4CC(Cl)C5(O)C(O)C=CC(=O)C5(C)C4CCC32C)C1 (configuration not stated)
6. O=S(=O)(C(Cl)Cl)C(Cl)(Cl)S(=O)(=O)C(Cl)Cl
7. Nc1ccc(Oc2ccc(N)cc2)cc1

1: 23.9; 2: 23.5; 3: -20; 4: 6.45; 5: 7.8; 6: -11.4; 7: 3.1

* * *

# test.method.notes: NCI Yeast Anticancer Drug Screen. Data for the bub3 strain (AID 167)
# condition: S. cerevisiae bub3 mutant strain, at 50.0 µM
# Protocol: Growth inhibition of yeast strains with defined genetic alterations is measured as a screen for potential anti-cancer activity. Selected strains with alterations in DNA damage repair or cell cycle control were exposed to compounds and growth inhibition was measured relative to vehicle treated controls. The strain used in this assay is bub3
The panel holds about 79,000 compounds, 15% with a hit somewhere; the sample as a whole holds those more often. Activity calls are given as the source filed them. No stated cut-off is given here; in the data, active means growth inhibition above about 70%; inactive means the rest.
Your response should consist of one outcome taken from 1 (active), 0 (inactive)

Look over these answered cases.
{"compound": "CCC1(C(C)C=C(C)C)C(=O)NC(=O)NC1=O (stereo unspecified)", "group.label": 0}
{"compound": "CC(Nc1c([N+](=O)[O-])ccc(C(=O)NCCN(C)C)c1[N+](=O)[O-])C(=O)Nc1ccc(N(CCCl)CCCl)cc1 (stereo unspecified)", "group.label": 0}
{"compound": "C/C(CCl)=N\\NC1=NC(C)(CCl)P(=O)(NNc2ncccn2)S1 (stereo unspecified)", "group.label": 0}

Lab note: next compound to report on.
Per the records of this test, what outcome belongs to C1CCC(N([P-]P([P-]N(C2CCCCC2)C2CCCCC2)N(C2CCCCC2)C2CCCCC2)C2CCCCC2)CC1.[C-]#[O+].[C-]#[O+].[C-]#[O+].[C-]#[O+].[C-]#[O+].[C-]#[O+].[Fe].[Fe] (stereo unspecified) ? 0

* * *

Please go through the items and note down their growth inhibition.
# test.method.notes: NCI Yeast Anticancer Drug Screen. Data for the mec2-1 strain (AID 157)
# condition: S. cerevisiae mec2-1 strain, at 50.0 µM, hits give high values
About 79,000 compounds went through this panel and 15% of them were active in at least one assay; those are over-represented in the sample as a whole.
One number for each entry, in %.

Record growth inhibition per entry; entries follow.
1. CP(=S)(c1ccccc1)P(C)(=S)c1ccccc1 (configuration not stated)
2. CCCCCCCC(=O)O.[Sn]
3. CCC(=O)C(CC(C)[N+](C)(C)C)(c1ccccc1)c1ccccc1 (configuration not stated)
4. CCCCOC(N)=O
5. ClCCCCBr
6. CCc1cc[c]([Sb](=[O])([OH])[OH])cc1
7. O=C(CCSCCC(=O)N/N=C/c1ccc(N(CCCl)CCCl)cc1)N/N=C\c1ccc(N(CCCl)CCCl)cc1

1. -19.4
2. -7.35
3. -4.95
4. -11.6
5. -14.2
6. -7.15
7. 3.85

* * *

# test.method.notes: NCI Yeast Anticancer Drug Screen. Data for the cln2 rad14 strain (AID 165);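 also: 0% = growth equal to vehicle treated cultures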
# condition: S. cerevisiae cln2 rad14 strain, at 50.0 µM, hits give high values
This is part of a sample that, as a whole, favours compounds with a hit. Of some 79,000 tested, about 15% had one in any assay.
measurement.type: growth inhibition (%)
Answers are plain numbers, in %.

Example entries and their recorded answers appear below.
{"molecule": "CN1C2CCC1CC1(C2)SCCS1", "growth inhibition, %": 6.2}
{"molecule": "CC1CCCCN1 (stereo not drawn)", "growth inhibition, %": 10.2}
{"molecule": "CCOP(=O)(OCC)C(C)(C)OC(=O)NC#N", "growth inhibition, %": -8.85}
{"molecule": "CCOP(=O)(CC(=O)c1cc2ccccc2[nH]1)OCC", "growth inhibition, %": 1.2}
{"molecule": "CCOP(=O)(OCC)SC=C(Cl)Cl", "growth inhibition, %": -10.6}
{"molecule": "S=C([S-])N1CCCCC1.S=C([S-])N1CCCCC1.[Zn]", "growth inhibition, %": 22.9}
{"molecule": "C=C1C(=O)OC2/C=C(\\C)CC/C=C(/C)CC(OC(=O)/C(=C/CO)CO)C12 (stereo not drawn)", "growth inhibition, %": 13}
{"molecule": "CC(C)c1cccc(C(C)C)c1O", "growth inhibition, %": 3.5}
{"molecule": "NC(=O)NC(O)C(Cl)(Cl)Cl (stereo not drawn)", "growth inhibition, %": -42}
{"molecule": "Cc1ccc([P+](=O)O)cc1Cl", "growth inhibition, %": -9.25}

Record growth inhibition per entry; entries follow.
1. CC(Cl)CN(CC(C)Cl)C(=O)Oc1ccc(CC(N)C(=O)O)cc1 (stereo not drawn)
2. O=C(C(F)(F)Cl)C(F)(F)Cl
3. c1cc2n[se]nc2cc1-c1ccc2n[se]nc2c1

-20.6
15.6
-40.2

* * *

# test.method.notes: NCI Yeast Anticancer Drug Screen. Data for the mlh1 rad18 strain (AID 175)
# condition: S. cerevisiae mlh1 rad18 strain growth inhibition; at 50.0 µM; hits give high values
This is part of a sample that, as a whole, favours compounds with a hit. Of some 79,000 tested, about 15% had one in any assay. The source made the active and inactive calls. No stated cut-off is given here; in the data, active means growth inhibition above about 70%; inactive means the rest.
measurement.type: growth inhibition

{"compound": "CC(C)C(Br)C(=O)O (configuration not stated)", "endpoint.result": "2.1% (inactive)"}
{"compound": "O=C(O)C(F)(F)C(F)(Cl)C(F)(F)C(F)(Cl)C(F)(F)Cl (configuration not stated) (tested in a mixture with another compound)", "endpoint.result": "-6.2% (inactive)"}
{"compound": "CC1=CC23C(COC(=O)C24CO4)C(C(=O)O)=CC3C1C (configuration not stated)", "endpoint.result": "-5.7% (inactive)"}
{"compound": "Cc1ccc(S(=O)(=O)OC2CC3c4ccccc4C2c2cccc[n+]23)cc1 (configuration not stated)", "endpoint.result": "12.1% (inactive)"}
{"compound": "CC(C)[C@]12O[C@H]1[C@@H]1O[C@]13[C@]1(O[C@H]1C[C@H]1C4=C(C(=O)OC4)[C@@H](O)C[C@@]13C)[C@@H]2O", "endpoint.result": "-12.8% (inactive)"}

Record growth inhibition per entry; entries follow.
1. O=C1NC(=O)C(Cc2cccc(Cl)c2)C(=O)N1
2. CN(C1CCCC1)C1CCCC1
3. C[Si](C)(C)CN(N=O)C(N)=O

-36% (inactive)
-7.7% (inactive)
9.45% (inactive)

Record growth inhibition per entry; entries follow.
1. CCCCCCCCCCNP(=O)(Oc1ccccc1)Oc1ccccc1
2. COc1ccc(C2C=C(c3ccc4c(c3)OCO4)Oc3c2c(=O)oc2ccccc32)cc1OC (configuration not stated)
3. CCC1CN(CC(=O)c2ccc(Br)cc2)CCO1 (configuration not stated)
4. O=c1ccc2c(O)c3ccoc3cc2o1

-23.9% (inactive)
37% (inactive)
25% (inactive)
-22.9% (inactive)

Data provenance is PubChem BioAssay (NCI).
